Hey, just so you know, these numbers are from PubChem BioAssay.

Biological target: Epidermal growth factor receptor (Homo sapiens) (UniProt P00533)
Sequence (P00533 whole entry, looked up): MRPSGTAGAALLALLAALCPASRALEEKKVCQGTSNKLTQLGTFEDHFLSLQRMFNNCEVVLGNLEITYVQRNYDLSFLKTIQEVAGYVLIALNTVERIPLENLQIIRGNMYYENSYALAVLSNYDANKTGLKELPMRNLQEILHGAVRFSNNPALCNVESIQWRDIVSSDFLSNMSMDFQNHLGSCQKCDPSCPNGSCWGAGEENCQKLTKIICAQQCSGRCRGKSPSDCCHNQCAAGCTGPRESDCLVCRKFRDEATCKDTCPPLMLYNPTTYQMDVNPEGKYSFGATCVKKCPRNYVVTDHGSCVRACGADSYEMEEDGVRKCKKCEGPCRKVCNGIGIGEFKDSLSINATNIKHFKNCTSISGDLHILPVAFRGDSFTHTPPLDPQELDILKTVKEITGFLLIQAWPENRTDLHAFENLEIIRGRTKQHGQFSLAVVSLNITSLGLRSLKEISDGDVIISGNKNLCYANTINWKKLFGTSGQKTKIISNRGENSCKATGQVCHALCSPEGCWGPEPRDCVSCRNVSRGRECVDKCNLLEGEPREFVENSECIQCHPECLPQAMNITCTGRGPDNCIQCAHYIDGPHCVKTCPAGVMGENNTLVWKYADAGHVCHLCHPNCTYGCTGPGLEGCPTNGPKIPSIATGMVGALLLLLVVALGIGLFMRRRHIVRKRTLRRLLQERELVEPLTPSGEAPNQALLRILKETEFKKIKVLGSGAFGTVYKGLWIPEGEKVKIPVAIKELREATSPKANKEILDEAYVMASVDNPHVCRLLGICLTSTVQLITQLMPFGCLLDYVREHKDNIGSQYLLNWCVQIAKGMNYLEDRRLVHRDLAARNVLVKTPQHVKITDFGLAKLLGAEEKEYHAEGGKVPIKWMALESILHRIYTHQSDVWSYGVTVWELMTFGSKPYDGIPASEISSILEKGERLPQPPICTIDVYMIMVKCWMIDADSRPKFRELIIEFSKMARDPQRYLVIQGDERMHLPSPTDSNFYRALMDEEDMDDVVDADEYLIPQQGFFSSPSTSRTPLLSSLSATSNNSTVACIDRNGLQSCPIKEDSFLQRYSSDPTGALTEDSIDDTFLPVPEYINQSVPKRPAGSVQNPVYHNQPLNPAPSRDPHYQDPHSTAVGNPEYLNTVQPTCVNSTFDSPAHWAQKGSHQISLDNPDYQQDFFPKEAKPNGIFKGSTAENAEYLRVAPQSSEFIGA
Assay: EGFR binders on small-molecule microarrays, primary screen, biochemical, small-molecule microarray, 635 nm fluorescence (AID 1104);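 further: score merges 667 nm emission intensity with spot signal to noise over triplicate slides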
Conditions: EGFR binding, higher = more signal
Mark false for composite z-score values under 0.2, and true for everything at or above.

Challenge: Threshold query (composite z-score >= 0.2) on COC(=O)[C@@]1(Cc2ccccc2)[C@H]2c3cc(C(=O)N(C)C)n(CCSCCO)c3C[C@H]2CN1C(=O)c1ccccc1
Response given: false

Challenge: Reported composite z-score reaches at least 0.2 for COCC(=C=CC[C@@H](O)c1ccccc1OCCO)C[C@@H](O)c1cc(Cl)cc(Cl)c1O ?
Response given: true

Challenge: Reported composite z-score reaches at least 0.2 for COCCOC(=O)N1C(=O)[C@@]2(c3cc(C#CC4=CCCCC4)ccc31)[C@H](C(=O)N1CCc3cc(OC)c(OC)cc3C1)[C@H]1C(=O)O[C@H](c3ccccc3)[C@H](c3ccccc3)N1[C@@H]2c1ccc(OCCO)cc1 ?
Response given: true

Challenge: // inclusive: composite z-score at least 0.2? input: CC1(C)[C@@H]2CC(C(O)C3C=CC4C(=O)N(c5ccccc5)C(=O)C4N3Nc3ccccc3)=C[C@H]1C2 (stereo partly specified)
Response given: false

====

Experiment: inhibitors of hydroxyurea-induced Chk1 phosphorylation, primary screen, imaging, HeLa, phospho-Chk1 antibody, percent positive cells (AID 1186)
Conditions: hydroxyurea-induced phospho-Chk1 immunofluorescence imaging, higher = more signal
Label scheme for z-score: lower than -0.4 is not met, -0.4 and above is met.

O=C(NCc1ccc(F)cc1)[C@H]1C[C@H]2C(=O)N[C@@H](Cc3ccccc3)C(=O)N2[C@H]1c1ccc(O)cc1 : not met
COCCOC(=O)N1C(=O)[C@@]2(c3cc(C#CCCO)ccc31)[C@H](C(=O)N1CCN(c3ncccn3)CC1)[C@H]1C(=O)O[C@H](c3ccccc3)[C@H](c3ccccc3)N1[C@@H]2c1ccccc1OCCO : met
O=C(NCc1ccccc1)[C@@]1(CCS(=O)(=O)c2ccccc2)N=C(c2ccc(OCCCO)cc2)O[C@H]1c1ccccc1 : not met
CC(C)C[C@@H]1NC(=O)[C@@H]2C[C@H](C(=O)NCCCCCN)[C@H](c3cccc(OCCO)c3)N2C1=O : met
O=C1C[C@]2(c3ccc([N+](=O)[O-])cc3)C(=O)N(CCN3CCOCC3)c3cc(CO)ccc3[C@H]2N1C1CCCCC1 : not met
CCN(CC)c1ccc(N2CC=CC34O[C@@H]5/C=C\CCCOC(=O)C5[C@H]3C(=O)N(CCO)[C@@H]4C2=O)cc1 (some centres undefined) : met

Challenge: Check if z-score >= -0.4 (inclusive). Item: COCCOC(=O)N1C(=O)[C@@]2(c3cc(C#Cc4ccc(OC)cc4)ccc31)[C@H](C(=O)N1CCCCCCC1)[C@H]1C(=O)O[C@H](c3ccccc3)[C@H](c3ccccc3)N1[C@@H]2c1ccc(OCCO)cc1
Response given: not met

Challenge: Determine whether measured z-score meets or exceeds -0.4 for CN1C(=O)C2C=CC(C(O)c3ccccc3)N(Nc3ccccc3)C2C1=O (centres undefined)
Response given: met

Challenge: Textbook exercise: given the entry O=C1O[C@H](c2ccccc2)[C@H](c2ccccc2)N2[C@H]1[C@@H](C(=O)Nc1nc3ccccc3s1)[C@]1(C(=O)Nc3ccc(C#CC4(O)CCCCCC4)cc31)[C@H]2c1ccc(OCCO)cc1 , state whether its z-score is greater than or equal to -0.4.
Response given: met

Challenge: Quick check: does COCCOC(=O)N1C(=O)[C@@]2(c3cc(C#CCCO)ccc31)[C@H](C(=O)Nc1nc3ccccc3s1)[C@H]1C(=O)O[C@H](c3ccccc3)[C@H](c3ccccc3)N1[C@@H]2c1ccc(OCCO)cc1 have z-score greater than or equal to -0.4?
Response given: not met

Challenge: z-score >= -0.4 for CCCC[C@@H]1C[C@H]1[C@@H](NC(=O)c1ccco1)c1ccc(Cl)cc1 ?
Response given: not met

Challenge: Does z-score meet or surpass -0.4 for O=C(NCc1ccccc1)[C@@]1(Cc2ccccc2)N=C(c2ccc(OCCCO)cc2)O[C@H]1c1ccccc1 ?
Response given: met

Challenge: Tell me whether z-score is at least -0.4 here: COCCCNC(=O)[C@@]1(Cc2ccccc2)N=C(c2ccc(OCCCO)cc2)O[C@H]1c1ccccc1
Response given: met

Challenge: # check: z-score of CC(C)C[C@@H]1NC(=O)[C@H]2C[C@@H](C(=O)NCCCCCCN(C)C)[C@@H](c3ccc(O)cc3)N2C1=O is greater than or equal to -0.4
Response given: met

====

The entries below come with measured composite z-score values attached.
Biological target: Follistatin-related protein 3 (Homo sapiens)
Assay: FSTL3 binders on small-molecule microarrays, primary screen, biochemical, small-molecule microarray, 635 nm fluorescence (AID 1105);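 further: score merges emission near 667 nm and signal to noise per printed spot across three slides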
Settings: FSTL3 binding, higher = more signal
Note: the reply should be a number with no unit written.

Use the examples below as a reference point.
CCN(CC)c1ccc(N2CC=CC34O[C@@H]5/C=C\CCCOC(=O)C5[C@H]3C(=O)N(CCO)[C@@H]4C2=O)cc1 (some centres undefined) : -0.957
CC(C)C[C@@H]1NC(=O)[C@H]2C[C@@H](C(=O)NCCCCCCN)[C@@H](c3ccc(O)cc3)N2C1=O : 0.69
CCOC(=O)C1=CCC(c2ccc(C)cc2)N(S(=O)(=O)c2ccc(C)cc2)C1 (centres undefined) : 0.058

Consider now this further compound.
For reference, reported composite z-score for CCCCN1CC=CC23O[C@@H]4/C=C\CCC(C)OC(=O)C4[C@H]2C(=O)N(CCCCCO)[C@@H]3C1=O (some centres undefined) stands at -0.668

====

System: wheat germ agglutinin (Triticum aestivum), Alexa647-labelled
Experiment: wheat germ agglutinin binders on compound microarrays, profiling panel, artefact control for SMM control-protein annotation, biochemical, small-molecule microarray, 635/667 nm fluorescence (AID 1140);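 further: score merges 667 nm feature emission with signal to noise over triplicate slides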
Conditions: WGA-A647 binding, 635 nm fluorescence, higher = more signal
Returns one of Satisfied or Not satisfied; Satisfied when composite z-score is >= 0.2.

O=C1NC(=O)C2C1C=CC(C(O)c1cccc3ccccc13)N2Nc1ccccn1 (stereo not given) : Not satisfied
COCCCNC(=O)C1N=C(c2ccc(OCCCO)cc2)N(c2ccccc2)O1 (stereo not given) : Satisfied
O=C1[C@H]2C=C(Br)[C@H](C[C@@H]2c2ccccc2)[C@@]12CO2 : Not satisfied
CCCCCCC#C[Si](O[C@H](c1ccccc1)c1cn([C@H](CO)Cc2ccccc2)nn1)(C(C)C)C(C)C : Satisfied

Lab note: next compound to report on.
Challenge: API: above_or_equal(metric=composite z-score, cutoff=0.2) for item CN1C(=O)C2C=CC(C(O)Cc3ccccc3)N(Nc3ccccc3)C2C1=O (stereo not given)
Response given: Satisfied

====

Biological target: Epidermal growth factor receptor (Homo sapiens)
Experiment: EGFR binders on small-molecule microarrays, primary screen, biochemical, small-molecule microarray, 635 nm fluorescence (AID 1104);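 further: score merges 667 nm emission intensity with spot signal to noise over triplicate slides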
Details: EGFR binding, higher = more signal
Lab note: compare composite z-score against 0.7. Equal or greater, write Met. Smaller, write Not met.

CC(=O)N1Cc2ccccc2C[C@@]2(COC(c3ccc(OCCCO)cc3)=N2)C1=O : Not met

Challenge: Has CCC(CC)C(O)C1C=CC2C(=O)N(C)C(=O)C2N1Nc1ccccc1 (stereo unspecified) a recorded composite z-score greater than or equal to 0.7?
Response given: Not met

Challenge: Given the entry COCCOC(=O)N1C(=O)[C@@]2(c3cc(C#Cc4ccc(OC)cc4)ccc31)[C@H](C(N)=O)[C@H]1C(=O)O[C@H](c3ccccc3)[C@H](c3ccccc3)N1[C@@H]2c1ccccc1OCCO , answer whether its composite z-score meets or surpasses 0.7.
Response given: Met

Challenge: composite z-score >= 0.7 for [N-]=[N+]=NCc1ccccc1C[C@]1(C(=O)N2CCOCC2)N=C(c2ccc(OCCCO)cc2)O[C@H]1c1ccccc1N=[N+]=[N-] ?
Response given: Not met

====

composite z-score values by entry
Test system: Chordin-like protein 2 (CHRDL2)
Assay: CHRDL2 small-molecule binders, primary screen, biochemical, small-molecule microarray, 635 nm fluorescence (AID 1126);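 further: printed compound slides probed with Chrdl2 protein at 4 µg/mL for 1 h at 4 C; score merges 667 nm emission intensity with signal to noise over three replicate slides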
Conditions: small-molecule microarray binding, fluorescence 635 nm; higher = more signal
Output: the number by itself.

O=C1c2ccccc2[C@@]2(Cc3ccccc3N(CC(F)(F)F)C2=O)[C@H](c2ccc(CO)cc2)N1Cc1ccccc1Cl : 0.929
CCCCN1CC=CC23O[C@@H]4/C=C\CCC(C)OC(=O)C4[C@H]2C(=O)N(CCCCCO)[C@@H]3C1=O (some centres undefined) : -1.4
COC(=O)[C@@]1(Cc2ccc(F)cc2)[C@H]2c3cc(C(=O)N(C)C)n(Cc4nc5ccccc5[nH]4)c3C[C@H]2CN1C(=O)c1ccccc1 : -0.41

// moving on: another record for composite z-score
Looking up O=C1C2C=CC(C(O)C(c3ccccc3)c3ccccc3)N(n3cnnc3)C2C(=O)N1Cc1ccccc1 (centres undefined) , I found its composite z-score recorded as 0.121
